Provide the reported IC50 of each item.
test system: TT medullary thyroid carcinoma cells, harboring a mutated RET-C634W receptor; test: In Vitro Cell Proliferation Assay (TT); type: cell-based; details: Homo sapiens; 144 hours exposure, CellTiterGlo
Quote the value and follow it with the unit of measurement.

Problem: Entry Cn1c(-c2nc(N)ncc2C#Cc2cccc(NC(=O)Nc3ccc(C(F)(F)F)cc3)c2)cc2c1CCNC2=O [Reference cmpd, reference compound] : reported IC50 = ?
Result: 0.041 µM

Problem: Try this compound next: CCN1CCN(Cc2ccc(NC(=O)Cc3cccc(C#Cc4cnc(NC)nc4-c4cc5c(n4C)CCNC5=O)c3)cc2C(F)(F)F)CC1
Result: 0.007 µM

Problem: And then CCN1CCN(Cc2cc(NC(=O)Nc3cccc(C#Cc4cnc(N)nc4-c4cc5c(n4C)CCNC5=O)c3)ccc2C(F)(F)F)CC1 , what is it?
Result: 0.007 µM

Problem: Next: CCN1CCN(Cc2ccc(NC(=O)Nc3cccc(C#Cc4cnccc4-c4cc5c(n4C)CCNC5=O)c3)cc2C(F)(F)F)CC1
Result: 0.038 µM

Problem: Lookup CNc1ncc(C#Cc2cccc(CC(=O)Nc3ccc(CN4CCN(C)CC4)c(C(F)(F)F)c3)c2)c(-c2cc3c(n2C)CCNC3=O)n1
Result: 0.005 µM

Problem: Another: CCN1CCN(Cc2ccc(NC(=O)N3CCc4ccc(C#Cc5cnc(N)nc5-c5cc6c(n5C)CCNC6=O)cc43)cc2C(F)(F)F)CC1
Result: 0.069 µM

Problem: Repeat for the following compound: CCN1CCN(Cc2ccc(NC(=O)Cc3ccc(C#Cc4cnc(N)nc4-c4cc5c(n4C)CCNC5=O)cc3)cc2C(F)(F)F)CC1
Result: 0.06 µM

Problem: Param item: CCN1CCN(Cc2ccc(NC(=O)Cc3ccc(C#Cc4cnc(N)nc4-c4cc5c(n4C)CCNC5=O)s3)cc2C(F)(F)F)CC1
Result: 0.002 µM

Problem: Can you check CCNc1ncc(C#Cc2cccc(CC(=O)Nc3ccc(CN4CCN(C)CC4)c(C(F)(F)F)c3)c2)c(-c2cc3c(n2C)CCNC3=O)n1 next?
Result: 0.016 µM

Problem: Likewise for CCCN1CCN(Cc2ccc(NC(=O)Cc3cccc(C#Cc4cnc(NC)nc4-c4cc5c(n4C)CCNC5=O)c3)cc2C(F)(F)F)CC1 ?
Result: 0.017 µM

Problem: And then CCN1CCN(Cc2ccc(NC(=O)Cc3cccc(C#Cc4cnc(N)nc4-c4cc5c(n4C)CCNC5=O)c3)cc2C(F)(F)F)CC1 , what is it?
Result: 0.002 µM

Problem: Could you do the same for CCN1CCN(Cc2ccc(NC(=O)Cc3cncc(C#Cc4cnc(N)nc4-c4cc5c(n4C)CCNC5=O)c3)cc2C(F)(F)F)CC1 , please?
Result: 0.001 µM

Problem: Now the compound CCCN1CCN(Cc2ccc(NC(=O)Cc3cccc(C#Cc4cnc(N)nc4-c4cc5c(n4C)CCNC5=O)c3)cc2C(F)(F)F)CC1
Result: 0.002 µM

====

Answer each item with its documented solubility at 24 h.
Test: High-Throughput Solubility Assay
Assay type: physicochemical
Details: kinetic from dmso stock; pH 7, aqueous potassium phosphate buffer, nominal 200 μM, 24 h at room temperature
Procedure: High-Throughput Solubility Assay A nominal 200 μM suspensions/solutions of a compound of formula (I) in aqueous potassium phosphate buffer at pH=7 and aqueous citric acid buffer at pH=3 were prepared on a “Multiscreen-HTS”, 0.2 μm filter plate (Millipore, Billerica, Mass.). […] The so obtained solutions were then analyzed simultaneously by HPLC-UV with standard solutions for quantification.
Numbers only here, please. The scale is µM.

Problem: Which solubility at 24 h is listed for CCN1CCN(Cc2cc(NC(=O)Nc3cccc(C#Cc4cnc(N)nc4-c4cc5c(n4C)CCNC5=O)c3)cc(C(F)(F)F)c2)CC1 ?
Result: 7.4

Problem: Okay, and CCN1CCN(Cc2ccc(NC(=O)Cc3cccc(C#Cc4cnc(N)nc4-c4cc5c(n4C)CCNC5=O)c3)cc2C(F)(F)F)CC1 ?
Result: 23

Problem: Moving on to the next molecule: CCN1CCN(Cc2ccc(NC(=O)Cc3ccc(C#Cc4cnc(N)nc4-c4cc5c(n4C)CCNC5=O)s3)cc2C(F)(F)F)CC1
Result: 26.4

Problem: Next up: CCN1CCN(Cc2cc(NC(=O)Nc3cccc(C#Cc4cnc(N)nc4-c4cc5c(n4C)CCNC5=O)c3)ccc2C(F)(F)F)CC1
Result: 5.8

Problem: Now consider CCN1CCN(Cc2ccc(NC(=O)Cc3ccc(C#Cc4cnc(N)nc4-c4cc5c(n4C)CCNC5=O)cc3)cc2C(F)(F)F)CC1 and answer again.
Result: 25.1

Problem: // same read-out, input: CCN1CCN(Cc2ccc(NC(=O)Nc3cccc(C#Cc4cnccc4-c4cc5c(n4C)CCNC5=O)c3)cc2C(F)(F)F)CC1
Result: 10.8

Problem: Another molecule to check: CN(C)[C@H]1CCN(Cc2ccc(NC(=O)Cc3cccc(C#Cc4cnc(N)nc4-c4cc5c(n4C)CCNC5=O)c3)cc2C(F)(F)F)C1
Result: 40.2

Problem: Could you do the same for CCN1CCN(Cc2ccc(NC(=O)Cc3cncc(C#Cc4cnc(N)nc4-c4cc5c(n4C)CCNC5=O)c3)cc2C(F)(F)F)CC1 , please?
Result: 9.4

Problem: Let us now turn to CCN1CCN(Cc2ccc(NC(=O)Nc3cccc(C#Cc4cnc(N)nc4-c4cc5c(n4C)CCNC5=O)c3)cc2C(F)(F)F)CC1
Result: 6.5

Problem: Next molecule up: CNc1ncc(C#Cc2cc(CC(=O)Nc3ccc(CN4CCN(C)CC4)c(C(F)(F)F)c3)ccc2F)c(-c2cc3c(n2C)CCNC3=O)n1
Result: 2.9

Problem: Record: CNc1ncc(C#Cc2cccc(CC(=O)Nc3ccc(CN4CCN(C(C)C)CC4)c(C(F)(F)F)c3)c2)c(-c2cc3c(n2C)CCNC3=O)n1
Result: 7.6
